Taken from ChEMBL document CHEMBL1155415.

Measured diameter of the inhibition zone (DIZ) values are reported for all entries that follow.
Test system: Aspergillus fumigatus
Assay: Antifungal activity against Aspergillus fumigatus after 48 hrs by disk diffusion method
Type: functional
Quick reminder: number only, in mm, skip the unit.

Examples from the recorded data:
compound=CCCCC/C=C\CC[C@H](O)CCCCCCCc1nnc(Nc2ccccc2)o1 assayedtarget="Aspergillus fumigatus" quantitykind="diameter of the inhibition zone (DIZ)" numericvalue=21.6
compound=C=CCCCCCCCCc1nnc(Nc2ccccc2)s1 assayedtarget="Aspergillus fumigatus" quantitykind="diameter of the inhibition zone (DIZ)" numericvalue=16.5
compound="CCCCCCC(O)C/C=C\\CCCCCCCc1nnc(Nc2ccccc2)s1 (centres undefined)" assayedtarget="Aspergillus fumigatus" quantitykind="diameter of the inhibition zone (DIZ)" numericvalue=22.4
compound=CCCCCCCC/C=C\CCCCCCCc1nnc(Nc2ccccc2)o1 assayedtarget="Aspergillus fumigatus" quantitykind="diameter of the inhibition zone (DIZ)" numericvalue=23.1
compound=C=CCCCCCCCCc1nnc(Nc2ccccc2)o1 assayedtarget="Aspergillus fumigatus" quantitykind="diameter of the inhibition zone (DIZ)" numericvalue=20.8
compound=CCCCCC[C@@H](O)C/C=C\CCCCCCCc1nnc(Nc2ccccc2)o1 assayedtarget="Aspergillus fumigatus" quantitykind="diameter of the inhibition zone (DIZ)" numericvalue=20.7

I'd like to know its diameter of the inhibition zone (DIZ). The compound in question is CCCCCCCC/C=C\CCCCCCCc1nnc(Nc2ccccc2)s1 23.8

Another compound to look at: COC1=CC(=O)C[C@@H](C)[C@]12Oc1c(Cl)c(OC)cc(OC)c1C2=O [GRISEOFULVIN] 27

Another compound to look at: CCCCC/C=C\CCC(O)CCCCCCCc1nnc(Nc2ccccc2)s1 (centres undefined) 21.8
